testTarget: RAS guanyl-releasing protein 1 (Rattus norvegicus, UniProt Q9R1K8)
Sequence (Q9R1K8 whole entry): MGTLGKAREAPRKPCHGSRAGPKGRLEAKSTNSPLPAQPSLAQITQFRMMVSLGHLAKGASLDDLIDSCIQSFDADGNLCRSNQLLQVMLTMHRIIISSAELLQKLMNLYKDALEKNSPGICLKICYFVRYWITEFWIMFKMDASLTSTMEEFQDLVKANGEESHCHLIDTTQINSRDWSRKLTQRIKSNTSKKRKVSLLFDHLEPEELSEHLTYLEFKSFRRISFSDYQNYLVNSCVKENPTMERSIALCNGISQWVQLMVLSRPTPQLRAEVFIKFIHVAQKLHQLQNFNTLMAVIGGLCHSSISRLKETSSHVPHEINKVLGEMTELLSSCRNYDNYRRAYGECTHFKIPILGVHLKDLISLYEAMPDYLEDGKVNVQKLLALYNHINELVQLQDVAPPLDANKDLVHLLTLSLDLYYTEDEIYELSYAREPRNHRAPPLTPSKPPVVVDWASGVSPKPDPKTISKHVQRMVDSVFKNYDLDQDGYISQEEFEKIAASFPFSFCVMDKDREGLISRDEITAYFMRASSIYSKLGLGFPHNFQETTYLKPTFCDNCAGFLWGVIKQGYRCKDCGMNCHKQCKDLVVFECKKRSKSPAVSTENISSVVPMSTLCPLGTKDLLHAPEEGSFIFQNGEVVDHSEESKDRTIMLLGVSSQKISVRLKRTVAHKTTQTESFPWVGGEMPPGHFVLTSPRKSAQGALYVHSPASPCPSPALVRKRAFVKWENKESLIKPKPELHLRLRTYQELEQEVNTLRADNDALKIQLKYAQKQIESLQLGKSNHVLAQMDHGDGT
pKi: −log10 of the molar value.
Measured pKi, listed per entry for reference.
valueKind: pKi

[[record]]
compound = "CCCCCCCCc1ccc2c3c(c[nH]c13)C[C@@H](CO)NC(=O)[C@H](C(C)C)N2C"
valuekind = "pKi"
observedvalue = 9.07

[[record]]
compound = "CCCCCCCCC#Cc1ccc2c(c1)C[C@@H](CO)NC(=O)[C@H](C(C)C)N2C"
valuekind = "pKi"
observedvalue = 8.21

[[record]]
compound = "CC(C)[C@H]1C(=O)N[C@H](CO)Cc2c[nH]c3cccc(c23)N1C [INDOLACTUM]"
valuekind = "pKi"
observedvalue = 8.60

[[record]]
compound = "CCCCCCCCC#Cc1ccc2c(c1OC)C[C@@H](CO)NC(=O)[C@H](C(C)C)N2C"
valuekind = "pKi"
observedvalue = 7.86

